- TGT: GPR119 receptor (Mesocricetus auratus, UniProt A0A1U8CD06)
- Construct: which endogenously express the GPR119 receptor; host or cells: HIT-T15 hamster pancreatic islet cells
- Sequence (A0A1U8CD06 1-334): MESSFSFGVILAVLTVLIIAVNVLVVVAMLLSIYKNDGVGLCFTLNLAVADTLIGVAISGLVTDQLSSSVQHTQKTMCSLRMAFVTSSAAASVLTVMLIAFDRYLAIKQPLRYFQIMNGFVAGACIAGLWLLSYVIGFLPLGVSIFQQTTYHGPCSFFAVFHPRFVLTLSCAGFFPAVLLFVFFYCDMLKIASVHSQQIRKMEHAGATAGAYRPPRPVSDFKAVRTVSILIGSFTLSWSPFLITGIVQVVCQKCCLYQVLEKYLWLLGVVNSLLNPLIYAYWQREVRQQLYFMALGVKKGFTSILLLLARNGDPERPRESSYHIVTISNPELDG
- ASSAY_INFO: cAMP assay in HIT-T15 hamster pancreatic islet cells (functional agonist activity)
- Type: cell-based
- REPORTED_CONDITIONS: HIT-T15 cells endogenously expressing GPR119; 30 min at 25° C.; intracellular cAMP
- Method: The functional agonist activities of compounds of the invention were characterized using a cAMP assay in HIT-T15 hamster pancreatic islet cells (American Type Culture Collection, Manassas, Va., USA) which endogenously express the GPR119 receptor. The cells were cultured in Kaighn's modification of Ham's F12 medium (Invitrogen Corporation, Carlsbad, Calif., USA) containing 10% horse serum, 2.5% FBS, and 1% Pen/Strep and grown in 225 cm^2 tissue culture flasks until they reached 75-85% confluence. […]

{"SAMPLE_SMILES": "CS(=O)(=O)c1ccc(Oc2ncnc3c2cnn3C2CCN(C(=O)OC3CCCC3)CC2)c(F)c1", "EC50 [µM]": 0.031}
{"SAMPLE_SMILES": "CS(=O)(=O)c1ccc(Oc2ncnc3c2cnn3C2CCN(Cc3cccc(OC(F)(F)F)c3)CC2)cc1", "EC50 [µM]": 0.12}
{"SAMPLE_SMILES": "CC(C)(C)OC(=O)N1CCC(n2ncc3c(Oc4ccc(Cl)cc4C#N)ncnc32)CC1", "EC50 [µM]": 0.11}
{"SAMPLE_SMILES": "CCOc1ccc(Oc2ncnc3c2cnn3C2CCN(C(=O)OC(C)(C)C)CC2)c(F)c1", "EC50 [µM]": 0.018}
{"SAMPLE_SMILES": "CC(C)c1noc(N2CCC(n3ncc4c(Oc5ccc(S(C)(=O)=O)cc5F)ncnc43)CC2)n1", "EC50 [µM]": 0.068}
{"SAMPLE_SMILES": "CC(C)(C)OC(=O)N1CCC(n2ncc3c(Oc4ccc(-n5ncnn5)cc4)ncnc32)CC1", "EC50 [µM]": 1.8}
{"SAMPLE_SMILES": "CC(C)OC(=O)N1CCC(n2ncc3c(Oc4ccccc4C#N)ncnc32)CC1", "EC50 [µM]": 0.71}
{"SAMPLE_SMILES": "CC(=O)N1CCN(c2ccc(Oc3ncnc4c3cnn4C3CCN(C(=O)OC(C)(C)C)CC3)cc2)CC1", "EC50 [µM]": 0.85}

These data points were gathered from patent US8188098B2.
